Where do the numbers come from? From ChEMBL document CHEMBL1201862.

Test system: COLO 205
assaySummary: NCI tumour cell line growth inhibition, 48 h
In all, about 57,000 sequences went through this assay and about 4,100 (7.2%) were called active. These entries were drawn from the full list. Measured potencies and affinities stand elsewhere.
assayReadout: GI50 (µM)
Express the result in µM but write the number alone.

Some substances with recorded GI50:
[Bis(aminomethyl)dimethylsilane]tetrachloroplatinum(IV), CHEMBL2146190 | 11.6
cis-Bis[[(trimethylsilyl)methyl]amino]tetrachloroplatinum(IV), CHEMBL2146191 | 2.07
[Bis(aminomethyl)tetramethylenesilane]dichloropaltinum(II), CHEMBL2146205 | 20.1
[Bis(aminomethyl)dimethylsilane]dichloroplatinum (II), CHEMBL2146201 | 24.3
[Bis(aminomethyl)pentamethylenesilane]dichloropaltinum(II), CHEMBL2146202 | 2.07

From here, focus on the item given below.
Please report the recorded GI50 for CISPLATIN, CHEMBL11359 .
13.4
